experiment: TOR pathway GLN3 branch reporter MEP2-GFP changes – S. cerevisiae, multiplex flow cytometry, primary screen (AID 1867);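 note: median GFP channel fluorescence of barcode-gated MEP2-GFP cells measured by flow cytometry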; conditions: S. cerevisiae MEP2-GFP strain, 3 h, at 10 µM, hits give high values, 100% means same as DMSO wells
Results filed as inconclusive are left out.
readout: GFP response vs DMSO (%)
Only the number, expressed in %, is required.

Please review the following examples before continuing.
COc1cccc(/C=C/C(=O)c2c(O)cc(C)oc2=O)c1O = 108
C[C@]12C[C@H](O)[C@H]3[C@@H](CCC4=CC(=O)CC[C@@]43C)[C@@H]1CC[C@@H]2C(=O)CO = 110
COc1cc2c3c(c1)C(C)CC(C)(C)N3C(=O)C2=O (stereo unspecified) = 122
CC(C)(C)NCC(O)COc1cccc2c1C[C@H](O)[C@H](O)C2 (stereo partly specified) = 108
O=C1CCc2cc(OCCCCc3nnnn3C3CCCCC3)ccc2N1 = 136

May I ask what GFP response vs DMSO has been recorded for O=C(O)c1ccccc1Nc1cccc(C(F)(F)F)c1 ?
103

May I ask what GFP response vs DMSO has been recorded for COc1ccc(O)c(C2=Nc3ccccc3N=C(c3ccccc3)C2)c1 ?
126

May I ask what GFP response vs DMSO has been recorded for CCC(C)NCCOCCOc1ccc(Cl)cc1Br (stereo unspecified) ?
102

May I ask what GFP response vs DMSO has been recorded for CC(C)=CCC(C)(C)/C=N/NC(N)=O ?
102

May I ask what GFP response vs DMSO has been recorded for CCN(CC)c1ccc(C2=NNC(=O)CC2C)cc1[N+](=O)[O-] (stereo unspecified) ?
102

May I ask what GFP response vs DMSO has been recorded for Cc1ccc2c(c1)C1(C(=O)N2)N2CCCC2C(C(=O)c2ccc3ccccc3c2)C12C(=O)Nc1ccccc12 (stereo unspecified) ?
93
